Tested System: human MRGPR X4 (Homo sapiens, UniProt Q96LA9)
Construct: expressed in transfected cells
Sequence (Q96LA9 whole entry): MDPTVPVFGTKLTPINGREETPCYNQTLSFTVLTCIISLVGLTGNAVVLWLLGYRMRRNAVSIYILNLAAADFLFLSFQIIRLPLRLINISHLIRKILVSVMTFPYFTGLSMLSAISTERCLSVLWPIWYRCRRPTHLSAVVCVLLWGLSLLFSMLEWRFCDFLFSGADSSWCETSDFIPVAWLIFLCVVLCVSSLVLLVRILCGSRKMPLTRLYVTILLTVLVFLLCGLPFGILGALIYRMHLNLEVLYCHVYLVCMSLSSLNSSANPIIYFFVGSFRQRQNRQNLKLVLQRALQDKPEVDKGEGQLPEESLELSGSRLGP
Protocol: MRGPR X4 antagonist activity, IP-One Gq HTRF assay in stably transfected HEK cells
Assay type: cell-based
Protocol: HEK cells stably transfected to express human MIRGPR X4 were maintained in an incubator at 37° C. with 5% CO2 and grown in DMEM media with 10% fetal bovine serum (FBS) and […] each of sodium pyruvate, Glutamax, penicillin/streptomycin, and Geneticin. […] Cells were plated in a 384-well assay plate at 20,000 cells per well in 12 μL of Opti-MEM and kept in an incubator overnight. […] The plate was read on a Molecular Devices SpectraMax iD5 plate reader. […]

[
  {
    "Compound": "O=C(NCCc1ccccn1)c1cn(Cc2ccc(OC(F)F)cc2)c2ccccc12 [Compound 167]",
    "Tested System": "human MRGPR X4 (Homo sapiens, UniProt Q96LA9)",
    "IC50": "100 to 500 nM"
  },
  {
    "Compound": "O=C(NCCc1nnc2ccccn12)c1nn(Cc2ccc(C(F)(F)F)cc2Cl)c2ccccc12 [Compound 553]",
    "Tested System": "human MRGPR X4 (Homo sapiens, UniProt Q96LA9)",
    "IC50": "< 100 nM"
  },
  {
    "Compound": "O=C(NCCc1ccc(Cl)c(F)c1)c1cn(Cc2ccc(F)cc2)c2ccccc12 [Compound 198]",
    "Tested System": "human MRGPR X4 (Homo sapiens, UniProt Q96LA9)",
    "IC50": "501 to 1000 nM"
  },
  {
    "Compound": "Cc1ccc(Cn2nc(C(=O)NCCc3ccc[nH]3)c3ccccc32)cc1 [Compound 104]",
    "Tested System": "human MRGPR X4 (Homo sapiens, UniProt Q96LA9)",
    "IC50": "1000 to 2500 nM"
  },
  {
    "Compound": "N#Cc1ccc(Cn2nc(C(=O)NCCc3nnc4ccccn34)c3ccccc32)cc1 [Compound 408]",
    "Tested System": "human MRGPR X4 (Homo sapiens, UniProt Q96LA9)",
    "IC50": "100 to 500 nM"
  },
  {
    "Compound": "Cc1cc(Cn2nc(C(=O)NCCc3nnc4n3CCCCC4)c3ccccc32)ccc1Cl [Compound 7]",
    "Tested System": "human MRGPR X4 (Homo sapiens, UniProt Q96LA9)",
    "IC50": "< 100 nM"
  },
  {
    "Compound": "O=C(NCCc1nnc2ccccn12)c1nn(Cc2cccc3ccccc23)c2ccccc12 [Compound 474]",
    "Tested System": "human MRGPR X4 (Homo sapiens, UniProt Q96LA9)",
    "IC50": "100 to 500 nM"
  },
  {
    "Compound": "O=C(NCCc1cccc(O)c1)c1nn(Cc2ccc(Cl)cc2)c2ccccc12 [Compound 9]",
    "Tested System": "human MRGPR X4 (Homo sapiens, UniProt Q96LA9)",
    "IC50": "< 100 nM"
  },
  {
    "Compound": "O=C(NCCc1nc2c(s1)CCCC2)c1nn(Cc2ccccc2Cl)c2ccccc12 [Compound 95]",
    "Tested System": "human MRGPR X4 (Homo sapiens, UniProt Q96LA9)",
    "IC50": "1000 to 2500 nM"
  },
  {
    "Compound": "Cc1ccc(CCNC(=O)c2nn(Cc3ccc(Cl)cc3)c3ccccc23)cn1 [Compound 21]",
    "Tested System": "human MRGPR X4 (Homo sapiens, UniProt Q96LA9)",
    "IC50": "< 100 nM"
  },
  {
    "Compound": "O=C(NCCn1cc(-c2ccccc2)nn1)c1nn(Cc2ccc(Cl)cc2)c2ccccc12 [Compound 141]",
    "Tested System": "human MRGPR X4 (Homo sapiens, UniProt Q96LA9)",
    "IC50": "501 to 1000 nM"
  },
  {
    "Compound": "O=C(NCCc1cnccn1)c1cn(Cc2ccc(Cl)cc2)c2ccccc12 [Compound 171]",
    "Tested System": "human MRGPR X4 (Homo sapiens, UniProt Q96LA9)",
    "IC50": "100 to 500 nM"
  },
  {
    "Compound": "O=C(Cn1nc(C(=O)NCCc2nnc3ccccn23)c2ccccc21)c1ccc(F)c(F)c1 [Compound 517]",
    "Tested System": "human MRGPR X4 (Homo sapiens, UniProt Q96LA9)",
    "IC50": "1000 to 2500 nM"
  },
  {
    "Compound": "O=C(NCCc1ccncn1)c1nn(Cc2ccc(Cl)cc2)c2ccccc12 [Compound 121]",
    "Tested System": "human MRGPR X4 (Homo sapiens, UniProt Q96LA9)",
    "IC50": "1000 to 2500 nM"
  },
  {
    "Compound": "O=C(Cn1nc(C(=O)NCCc2nnc3ccccn23)c2ccccc21)c1ccc(Cl)cc1 [Compound 481]",
    "Tested System": "human MRGPR X4 (Homo sapiens, UniProt Q96LA9)",
    "IC50": "501 to 1000 nM"
  },
  {
    "Compound": "O=C(NCCc1cccnc1)c1nn(Cc2ccc(OC(F)(F)F)cc2)c2ccccc12 [Compound 136]",
    "Tested System": "human MRGPR X4 (Homo sapiens, UniProt Q96LA9)",
    "IC50": "100 to 500 nM"
  },
  {
    "Compound": "Cn1c(CCNC(=O)c2nn(Cc3ccc(Cl)cc3)c3ccccc23)nc2ccccc21 [Compound 397]",
    "Tested System": "human MRGPR X4 (Homo sapiens, UniProt Q96LA9)",
    "IC50": "100 to 500 nM"
  }
]

====

Tested System: human MRGPR X4 (Homo sapiens, UniProt Q96LA9)
Construct: expressed in transfected cells
Protocol: MRGPR X4 antagonist activity, IP-One Gq HTRF assay in stably transfected HEK cells
Assay type: cell-based
Items are presented alongside their recorded IC50.
Readout: IC50

[
  {
    "Chemical String": "Cc1ccccc1S(=O)(=O)NC(=O)c1nn(Cc2ccc(Cl)cc2)c2ccccc12",
    "Readout": "IC50",
    "Val": "1 to 2.5 µM"
  },
  {
    "Chemical String": "O=C(NCCc1nnc2ccccn12)c1nn(Cc2ccc(Cl)cc2)c2ccc(F)cc12",
    "Readout": "IC50",
    "Val": "< 0.1 µM"
  },
  {
    "Chemical String": "Cn1cc2ccc(CNC(=O)c3nn(Cc4ccc(Cl)cc4)c4ccccc34)cc2n1",
    "Readout": "IC50",
    "Val": "1 to 2.5 µM"
  },
  {
    "Chemical String": "O=C(NCc1cccc2nc[nH]c12)c1nn(Cc2ccc(Cl)cc2)c2ccccc12",
    "Readout": "IC50",
    "Val": "> 2.5 µM"
  },
  {
    "Chemical String": "O=C(NCCc1cccnc1)c1nn(Cc2ccc(Cl)cc2F)c2ccccc12",
    "Readout": "IC50",
    "Val": "< 0.1 µM"
  },
  {
    "Chemical String": "Cc1ccc(CNC(=O)c2nn(Cc3ccc(Cl)cc3)c3ccccc23)nn1",
    "Readout": "IC50",
    "Val": "0.501 to 1 µM"
  },
  {
    "Chemical String": "Cc1ccc(C(=O)Cn2nc(C(=O)NCCc3nnc4ccccn34)c3ccccc32)c(C)c1",
    "Readout": "IC50",
    "Val": "0.501 to 1 µM"
  },
  {
    "Chemical String": "Cc1ccc(Cn2cc(C(=O)NCCc3nc4c(s3)CCC4)c3ccccc32)cc1",
    "Readout": "IC50",
    "Val": "0.1 to 0.5 µM"
  }
]

====

Items are presented alongside their recorded IC50.
Tested System: human MRGPR X4 (Homo sapiens, UniProt Q96LA9)
Construct: expressed in transfected cells
Protocol: MRGPR X4 antagonist activity, IP-One Gq HTRF assay in stably transfected HEK cells
Format: cell-based
Readout: IC50

[
  {
    "Chemical String": "O=C(NCCc1ccncc1)c1cn(Cc2cccc(F)c2)c2ccccc12",
    "Tested System": "human MRGPR X4 (Homo sapiens, UniProt Q96LA9)",
    "Readout": "IC50",
    "Val": "1000 to 2500 nM"
  },
  {
    "Chemical String": "O=C(O)c1nn(Cc2ccc(F)cc2)c2ccccc12",
    "Tested System": "human MRGPR X4 (Homo sapiens, UniProt Q96LA9)",
    "Readout": "IC50",
    "Val": "> 2500 nM"
  },
  {
    "Chemical String": "CS(=O)(=O)c1ccc(CNC(=O)c2nn(Cc3ccc(Cl)cc3)c3ccccc23)cc1",
    "Tested System": "human MRGPR X4 (Homo sapiens, UniProt Q96LA9)",
    "Readout": "IC50",
    "Val": "> 2500 nM"
  },
  {
    "Chemical String": "O=C(NCCc1cccnc1)c1cn(Cc2cccc(OC(F)(F)F)c2)c2ccccc12",
    "Tested System": "human MRGPR X4 (Homo sapiens, UniProt Q96LA9)",
    "Readout": "IC50",
    "Val": "501 to 1000 nM"
  },
  {
    "Chemical String": "O=C(NCCc1nnc2ccccn12)c1nn(Cc2ccc3occc3c2)c2ccccc12",
    "Tested System": "human MRGPR X4 (Homo sapiens, UniProt Q96LA9)",
    "Readout": "IC50",
    "Val": "< 100 nM"
  }
]
